For each record, write down the corresponding Velvetleaf plant response rating.
# Tested on: velvetleaf
# Protocol: Test B pre/postemergence velvetleaf
# Format: in vivo, Abutilon theophrasti
# Experimental Setup: Preemergence, Rate 250 g/ha; scale of 0 to 10 where 0 is no effect and 10 is complete control
# Method: […] At the same time, these crop and weed species were also treated with postemergence applications of test chemicals formulated in the same manner. […] Treated plants and controls were maintained in a greenhouse for twelve to sixteen days, after which all species were compared to controls and visually evaluated. […]
Give bare numbers.

- Sample Smiles: "Cc1cccc(C(C)(C)C)c1-n1c(=O)on(C(=O)N(c2ccc(F)cc2)C(C)C)c1=O"
  Velvetleaf plant response rating: 0

Dear colleague, could you send me Velvetleaf plant response rating for each of the items below? Thanks.
1. CC(C)=CCCC(C)=CCn1c(=O)on(C(=O)N(c2ccc(F)cc2)C(C)C)c1=O
2. CC(C)N(C(=O)n1oc(=O)n(-c2ccsc2)c1=O)c1ccc(F)cc1

Ans:
0
0
